Where do these numbers come from? They come from PubChem BioAssay AID493168.

Biological target: Ubiquitin carboxyl-terminal hydrolase 2 (Homo sapiens)
Test: Confirmation Assay for Inhibitors of Ubiquitin-specific Protease USP2a Using CHOP2 as the Reporter; further: nearly all actives have a fitted effect of over 55% in size
Conditions: USP2 core, Ub-CHOP2 coupled reporter fluorescence; series mostly up to 38.3 µM
Records with an inconclusive call do not appear. Activity calls are given as the source filed them. The call rests on the fitted dose curve; in most records, active means well fitted inhibition curve with a large enough effect; inconclusive means small, poorly fitted or top-dose-only effect, or effect the other way; inactive means flat fitted curve, though single readings scatter.
In this exercise, the only acceptable responses are active, inactive

[in] # outcome recorded in this test, key = "COc1ccccc1-c1nnc(SCC(=O)Nc2nc(-c3ccccc3)cs2)n1C"
[out] inactive

[in] Tell me the assay call for "CC(C)c1ccc(CCNC(=O)c2ccc([N+](=O)[O-])cc2)cc1" please.
[out] inactive

[in] Entry "CN(C)C=Nc1ncc2c3ccccc3n(CCN(C)C)c2c1C#N" : call = ?
[out] inactive

[in] Can you look up the reported call for "C#CCOCCOCCOCCNc1nc(N2CCN(C(=O)CCCCCCCCCCNC(=O)[C@@H](CCSC)n3cc(CCO)nn3)CC2)nc(N2CCN(C(=O)CCCCCCCCCCNC(=O)[C@H](CCCN=C(N)N)n3cc(C[C@@H](C)CC)nn3)CC2)n1" for me?
[out] active

[in] Hi, do you know how "COc1ccc(-n2c(=S)[nH]c3cc(C(=O)NCc4ccc(F)cc4)ccc3c2=O)c(OC)c1" came out in this test?
[out] inactive

[in] Record request — test call for "Cc1ccc2[nH]c(C)c(CCNC(=O)c3cc4cc([N+](=O)[O-])ccc4oc3=O)c2c1"
[out] inactive

[in] Which outcome was assigned to "CN(C)S(=O)(=O)c1ccc(C(=O)NCCN=C2NS(=O)(=O)c3ccccc32)cc1" in this test?
[out] inactive

[in] Test call, this molecule: CSCCC(NC(=O)c1cc(C(C)(C)C)oc1C)C(=O)O (centres undefined)
[out] inactive

[in] Which outcome was entered for the molecule "CCN(CC)c1ccc2nc3ccccc3[n+](CC)c2c1" in this test?
[out] inactive
